Where do the numbers come from? From the supplement of paper PMC11451515.

tested on: SEM cells; experiment: cell viability relative to DMSO control; higher = less cytotoxic; settings: RPMI 5 mM glucose + 10% FBS; 48 h; 0.569 µM
Parameter Measured: cell viability (%)
Quick reminder: number only, in %, skip the unit.

[[record]]
compound = "CN(C)c1nc(N(C)C)nc(N(C)C)n1"
parameter_measured = "cell viability"
observed_measurement = 102

[[record]]
compound = "CC1=C(/C=C/C(C)=C/C=C/C(C)=C/C(=O)Nc2ccc(O)cc2)C(C)(C)CCC1"
parameter_measured = "cell viability"
observed_measurement = 83

[[record]]
compound = "N#Cc1c(C2CCNCC2)cc(-c2c(O)cccc2OCC2CC2)nc1N"
parameter_measured = "cell viability"
observed_measurement = 97.3


[Q] Report cell viability for COc1ccc(-c2nc3cc(C4=NNC(=O)CC4C)ccc3[nH]2)cc1 (centres undefined) please.
[A] 111

[Q] Looking for the measured cell viability of COc1ccc2cc(-c3[nH]c(-c4ccc([S+](C)[O-])cc4)nc3-c3ccncc3)ccc2c1 (centres undefined) , can you help?
[A] 101

[Q] If you can, please state the reported cell viability value of `c1ccc2c(-c3cnn4cc(-c5ccc(N6CCNCC6)cc5)cnc34)ccnc2c1` .
[A] 121

[Q] Look up cell viability for this compound: `CC1=C(C)C2=C(S1)[N]3C(=NN=C3[C@H](CC(=O)OC(C)(C)C)/N=C2/C4=CC=C(Cl)C=C4)C`
[A] 13.7

[Q] // query cell viability value for entry CN1C(=O)COc2c(C(=O)NC3CN4CCC3CC4)cc(Cl)cc21 (centres undefined)
[A] 109

[Q] Can you share its cell viability? I mean this compound: `CCOC(=O)c1ccc(C#Cc2ccc3c(c2)C(C)(C)CCS3)nc1`
[A] 121

* * *

test system: P12-Ichikawa; assay: cell viability relative to DMSO control; higher = less cytotoxic; details: HPLM + 10% dialyzed FBS; 48 h; 0.0632 µM
Parameter Measured: cell viability (%)
Report the value in % with no unit label.

Completed entries (count: 2):
[[record]]
molecule = "CC1(C)OC/2=C(\\[C@H](NCC3=CC=CC=C3)[C@@H]1O)C(=O)C4=CC=CC=C4C2=O"
parameter_measured = "cell viability"
observed_measurement = 106

[[record]]
molecule = "Clc1ccc(COC(Cn2ccnc2)c2ccc(Cl)cc2Cl)cc1 (centres undefined)"
parameter_measured = "cell viability"
observed_measurement = 124


[Q] Could you share which cell viability value was measured for `CC(C)[C@@H](N(CCCN)C(=O)C1=CC=C(C)C=C1)C/2=C(\CC3=CC=CC=C3)C(=O)C4=C(O2)C=C(Cl)C=C4` ?
[A] 9.91

[Q] Need cell viability, item COc1ccc(-c2nc3cc(C4=NNC(=O)CC4C)ccc3[nH]2)cc1 (centres undefined)
[A] 107

[Q] Recorded cell viability of `COc1cc2nc(-c3ccc(N4CCN(C)CC4)cc3)nc(NCCN3CCOCC3)c2cc1OC` , please.
[A] 109

* * *

# key: entry, value: cell viability
tested on: P12-Ichikawa; experiment: cell viability relative to DMSO control; higher = less cytotoxic; conditions: RPMI 5 mM glucose + 10% dialyzed FBS; 48 h; 0.0211 µM
Give the value in % but do not write % after it.

Solved entries:
[[record]]
compound = "COc1ccc2cccc(CCNC(C)=O)c2c1"
study_target = "P12-Ichikawa"
unit_abbrev = "%"
observed_measurement = 96.8

[[record]]
compound = "COc1cc2c(NC3CCN(C(C)C)CC3)nc(C3CCCCC3)nc2cc1OCCCN1CCCC1"
study_target = "P12-Ichikawa"
unit_abbrev = "%"
observed_measurement = 121

[[record]]
compound = "O=C(NC1CC1)c1cccc(-c2ccc3c(NC(=O)C4CC4)n[nH]c3c2)c1"
study_target = "P12-Ichikawa"
unit_abbrev = "%"
observed_measurement = 121

[[record]]
compound = "CN[C@@H](C)C(=O)N[C@H]1CCCC[C@H]2CC[C@@H](C(=O)N[C@@H](c3ccccc3)c3cn(CCCCc4ccc(CCCCn5cc([C@@H](NC(=O)[C@@H]6CC[C@@H]7CCCC[C@H](NC(=O)[C@H](C)NC)C(=O)N76)c6ccccc6)nn5)cc4)nn3)N2C1=O"
study_target = "P12-Ichikawa"
unit_abbrev = "%"
observed_measurement = 84.7

[[record]]
compound = "COc1ccc([C@@H]2CNC(=O)C2)cc1OC1CCCC1"
study_target = "P12-Ichikawa"
unit_abbrev = "%"
observed_measurement = 107

[[record]]
compound = "CNC(=O)c1c(F)cccc1Nc1nc(Nc2cc3c(cc2OC)CCN3C(=O)CN(C)C)nc2[nH]ccc12"
study_target = "P12-Ichikawa"
unit_abbrev = "%"
observed_measurement = 119

[[record]]
compound = "CCCn1c(=O)c2[nH]c(C34CC5CC3C[C@@H](C5)C4)nc2n(CCC)c1=O"
study_target = "P12-Ichikawa"
unit_abbrev = "%"
observed_measurement = 96.9

[[record]]
compound = "CN(C)c1nc(N(C)C)nc(N(C)C)n1"
study_target = "P12-Ichikawa"
unit_abbrev = "%"
observed_measurement = 99.6

[[record]]
compound = "O=C1[O][Pt]2([NH]C3CCCCC3[NH]2)[O]C1=O (stereo not given)"
study_target = "P12-Ichikawa"
unit_abbrev = "%"
observed_measurement = 119


Consider the additional compound presented here.
[Q] API: value(readout= cell viability, system= P12-Ichikawa, query= `CCCn1c(=O)c2[nH]c(-c3cnn(Cc4cccc(C(F)(F)F)c4)c3)nc2n(CC)c1=O` )
[A] 108

* * *

tested on: SEM cells; test: cell viability relative to DMSO control; higher = less cytotoxic; details: RPMI 5 mM glucose + 10% dialyzed FBS; 48 h; 0.0211 µM
Recorded cell viability by entry
// unit must come after the numeric part

These solved cases illustrate the format of a correct answer.
[[record]]
compound = "CC(C)(O)CNc1nc(Nc2ccnc(C(F)(F)F)c2)nc(-c2cccc(C(F)(F)F)n2)n1"
study_target = "SEM cells"
observed_measurement = "107%"

[[record]]
compound = "CN(C)[C@H]\\1[C@@H]2[C@@H](O)[C@@H]\\3C(=C)C4=C(C(=CC=C4)O)C(=O)C3=C(\\O)[C@@]2(O)C(=O)\\C(=C1O)C(N)=O"
study_target = "SEM cells"
observed_measurement = "108%"

[[record]]
compound = "c1ccc(-c2nn3c(c2-c2ccnc4cc(OCCN5CCOCC5)ccc24)CCC3)nc1"
study_target = "SEM cells"
observed_measurement = "132%"

[[record]]
compound = "CN1[C@@H]2CC(O)C[C@H]1[C@@H]1O[C@@H]12 (stereo not given in full)"
study_target = "SEM cells"
observed_measurement = "21.8%"


[Q] // query cell viability value for entry Clc1ccc(COC(Cn2ccnc2)c2ccc(Cl)cc2Cl)cc1 (stereo not given)
[A] 85%

[Q] Sample CC1(C)CC(=O)c2c(C(F)(F)F)nn(-c3ccc(C(N)=O)c(NC4CCC(OC(=O)CN)CC4)c3)c2C1 (stereo not given) — what was its cell viability?
[A] 89.2%

[Q] Need cell viability of `Nc1ccc([S+](=O)([O-])Nc2ccccn2)cc1` , thanks.
[A] 101%

* * *

test system: SEM cells; assay: cell viability relative to DMSO control; higher = less cytotoxic; conditions: HPLM + 10% dialyzed FBS; 48 h; 5.12 µM
Parameter Measured: cell viability (%)
Kindly answer with a numeric value in %, unit omitted.

A selection of reference data follows.
[[record]]
molecule = "CCCN[S+](=O)([O-])Nc1ncnc(OCCOc2ncc(Br)cn2)c1-c1ccc(Br)cc1"
parameter_measured = "cell viability"
observed_measurement = 124

[[record]]
molecule = "COC(=O)C/1=C/O[C@@H](O)[C@H]\\2[C@@H]1C\\C=C2CO"
parameter_measured = "cell viability"
observed_measurement = 112

[[record]]
molecule = "CC(C)(Cc1ccc2ccccc2c1)NC[C@@H](O)COc1cccc(Cl)c1C#N"
parameter_measured = "cell viability"
observed_measurement = 108

[[record]]
molecule = "CC(=O)SCC(Cc1ccccc1)C(=O)NCC(=O)OCc1ccccc1 (stereo not drawn)"
parameter_measured = "cell viability"
observed_measurement = 108

[[record]]
molecule = "CN(C)CCC=C1C2=C(C=CC=C2)\\C=C/C3=C1C=CC=C3"
parameter_measured = "cell viability"
observed_measurement = 108

[[record]]
molecule = "O=C(NC1CC1)c1cccc(-c2ccc3c(NC(=O)C4CC4)n[nH]c3c2)c1"
parameter_measured = "cell viability"
observed_measurement = 90


// next entry
[Q] What does the data say about its cell viability? Entry: `Cc1ccc(F)c(NC(=O)Nc2ccc(-c3cccc4[nH]nc(N)c34)cc2)c1`
[A] 64.9

* * *

test system: P12-Ichikawa; test: cell viability relative to DMSO control; higher = less cytotoxic; conditions: RPMI 5 mM glucose + 10% dialyzed FBS; 48 h; 0.19 µM
Parameter Measured: cell viability (%)
Answer in %, number only, no unit symbol.

[[record]]
compound = "CC(C)[C@@H](N(CCCN)C(=O)C1=CC=C(C)C=C1)C/2=C(\\CC3=CC=CC=C3)C(=O)C4=C(O2)C=C(Cl)C=C4"
observed_measurement = 22.5

[[record]]
compound = "Cc1ccccc1C(C(=O)NC1CCCCC1)N(C(=O)CNc1ccc(C#N)cc1)c1cccc(F)c1 (centres undefined)"
observed_measurement = 92.7

[[record]]
compound = "N#Cc1c(C2CCNCC2)cc(-c2c(O)cccc2OCC2CC2)nc1N"
observed_measurement = 114

[[record]]
compound = "COc1ccc(CCC(=O)Nc2nc3ccc(Cl)cc3s2)cc1OC"
observed_measurement = 105

[[record]]
compound = "COC1=CC=C(C=C1)C/2=C/OC3=CC(=CC=C3C2=O)O"
observed_measurement = 105


[Q] May I ask what cell viability has been recorded for `COc1cc2c(NC3CCN(C(C)C)CC3)nc(C3CCCCC3)nc2cc1OCCCN1CCCC1` ?
[A] 129

[Q] Data request, read-out cell viability, for `CNC(=O)c1c(F)cccc1Nc1nc(Nc2cc3c(cc2OC)CCN3C(=O)CN(C)C)nc2[nH]ccc12`
[A] 122
